assay: in vitro; conditions: human, hepg2 cells
OUTCOME MEASURE: CC50 at 72 h

Example results:
• CNc1ncnc2c1c(F)cn2[C@@H]1O[C@](F)(CO)[C@@H](O)[C@H]1O [Example 35] = 10 to 99 µM
• Nc1ncnc2c1c(C(F)(F)F)cn2[C@@H]1O[C@](F)(CO)[C@@H](O)[C@H]1O [Example 42] = < 1 µM
• N#Cc1cn([C@@H]2O[C@](F)(CO)[C@@H](O)[C@H]2O)c2ncnc(N)c12 [Example 26] = < 1 µM
• Nc1ncnc2c1cnn2[C@@H]1O[C@](F)(CO)[C@@H](O)[C@H]1O [Example 52] = < 1 µM
• CNc1nc(N)nc2c1ncn2[C@@H]1O[C@](F)(COP(=O)(N[C@@H](C)C(=O)OC(C)C)Oc2ccccc2)[C@@H](O)[C@]1(F)Cl (single isomer, unassigned) [Example 58] = > 99 µM

CC50 at 72 h lookup needed for NC(=O)c1cn([C@@H]2O[C@](F)(CO)[C@@H](O)[C@H]2O)c2ncncc12 [Example 24] , thanks.
1 to 10 µM

CC50 at 72 h lookup needed for CSc1ncnc2c1ccn2[C@@H]1O[C@](F)(CO)[C@@H](O)[C@H]1O [Example 72] , thanks.
10 to 99 µM

---

experiment: in vitro; conditions: human, mrc5 cells
OUTCOME MEASURE: CC50

- Nc1ncnc2c1c(Cl)cn2[C@@H]1O[C@](F)(CO)[C@@H](O)[C@H]1O: 10 to 99 µM
- OC[C@@]1(F)O[C@@H](n2ccc3c(F)ncnc32)[C@H](O)[C@@H]1O: > 99 µM
- Nc1ncnc2c1ccn2[C@@H]1O[C@](F)(CO)[C@@H](O)[C@H]1O: 10 to 99 µM

CC50 lookup needed for NC(=O)c1cn([C@@H]2O[C@](F)(CO)[C@@H](O)[C@H]2O)c2ncncc12 , thanks.
> 99 µM

---

test system: HCoV-229E; assay: microbe, parasite or virus in culture; format: cell-based; details: Human coronavirus 229E, MRC5, 120 h, read-out: HCoV-229E/MRC5 EC50
pEC50: −log10 of the molar value.
OUTCOME MEASURE: pEC50

Example results:
* Nc1ncnc2c1c(F)cn2[C@@H]1O[C@](F)(CO)[C@@H](O)[C@H]1O | 6.00 to 7.00
* OC[C@@]1(F)O[C@@H](n2ccc3c(F)ncnc32)[C@H](O)[C@@H]1O | < 5.00
* Nc1ncnc2c1ccn2[C@@H]1O[C@](F)(CO)[C@@H](O)[C@H]1O | 6.00 to 7.00
* O=c1[nH]cnc2c1c(F)cn2[C@@H]1O[C@](F)(CO)[C@@H](O)[C@H]1O | < 5.00
* OC[C@@]1(F)O[C@@H](n2cc(Br)c3cncnc32)[C@H](O)[C@@H]1O | < 5.00
* Nc1ncnc2c1c(Cl)cn2[C@@H]1O[C@](F)(CO)[C@@H](O)[C@H]1O | < 5.00

pEC50 lookup needed for NC(=O)c1cn([C@@H]2O[C@](F)(CO)[C@@H](O)[C@H]2O)c2ncnc(N)c12 , thanks.
< 5.00

pEC50 lookup needed for OC[C@@]1(F)O[C@@H](n2ccc3c(Cl)ncnc32)[C@H](O)[C@@H]1O , thanks.
< 5.00

pEC50 lookup needed for NC(=O)c1cn([C@@H]2O[C@](F)(CO)[C@@H](O)[C@H]2O)c2ncncc12 , thanks.
< 5.00
